- tested.on: PDE_XIV (Homo sapiens, UniProt Q9NP56)
- Construct: made in house; host or cells: Sf9 insect cells (baculovirus, pFASTBAC-FLAG)
- Sequence (Q9NP56 whole entry): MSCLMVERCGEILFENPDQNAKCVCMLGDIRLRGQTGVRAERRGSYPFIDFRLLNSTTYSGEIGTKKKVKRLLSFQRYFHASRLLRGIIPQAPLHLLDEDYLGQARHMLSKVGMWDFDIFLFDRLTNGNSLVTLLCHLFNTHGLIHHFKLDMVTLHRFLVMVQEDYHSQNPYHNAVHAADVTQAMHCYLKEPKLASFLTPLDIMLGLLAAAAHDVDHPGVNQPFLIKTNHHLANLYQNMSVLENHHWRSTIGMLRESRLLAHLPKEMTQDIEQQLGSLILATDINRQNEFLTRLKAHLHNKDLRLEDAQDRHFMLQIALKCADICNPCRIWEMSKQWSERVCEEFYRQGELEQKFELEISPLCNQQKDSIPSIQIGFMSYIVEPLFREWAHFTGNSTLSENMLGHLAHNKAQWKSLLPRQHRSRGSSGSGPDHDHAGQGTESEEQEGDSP
- assay: Phosphodiesterase inhibition studies on purified expressed PDE_XIV (cAMP SPA)
- Format: biochemical
- experimental.setup: N = 2, read-out: IC50 FOR PDEXIV (μM) (N = 2)
- Excerpt: This allows the specific retention on the column of the recombinant material (since this is fused to the FLAG epitope) whilst the endogenous insect proteins are washed off in the eluate. The recombinant material is then washed off under conditions of low pH. […] The PDE-FLAG fusion protein is detected due to the interaction between the anti-FLAG antibody and the FLAG epitope which is fused to the PDE protein. […]
measure.name: IC50

{"compound": "Cc1[nH]c(=O)c(C#N)cc1-c1ccncc1 [Milrinone]", "obs.value": "> 30 µM"}
{"compound": "COc1ccc([C@]2(C#N)CC[C@@H](C(=O)O)CC2)cc1OC1CCCC1 [Ariflo]", "obs.value": "> 30 µM"}
{"compound": "COc1ccc(C2CNC(=O)C2)cc1OC1CCCC1 (stereo not shown) [Rolipram]", "obs.value": "> 30 µM"}

Alright, here's another compound for you.
Prompt line: Provide one value: measured IC50 of OCCN(CCO)c1nc(N2CCCCC2)c2nc(N(CCO)CCO)nc(N3CCCCC3)c2n1 [Dipyridamole]
Response line: 10.7 µM
